Tested on: KRAS patient-derived spheroids with HUVEC/MSC, viability;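 also: spheroids exposed to agents for seven days before readout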
Experiment: Anticancer human tumor 941728-121-R-J1-PDC patient-derived lung adenocarcinoma cell line growth inhibition [KRAS2]
Conditions: second compound 1 µM; first compound 10 µM; active compounds read low
Kindly apply the following: Y if viability, T/C is less than 9%, N in every other case.

Consider the worked cases shown below.
compound: COC(=O)c1ccc2c(C(=Nc3ccc(N(C)C(=O)CN4CCN(C)CC4)cc3)c3ccccc3)c(O)[nH]c2c1 + C=CC(=O)N1CCN(c2nc(OCC3CCCN3C)nc3c2CCN(c2cccc4cccc(C)c24)C3)CC1CC#N
label class: Y

compound: COc1cc(Nc2ncc3c(n2)-c2ccc(Cl)cc2C(c2c(F)cccc2OC)=NC3)ccc1C(=O)O + C=CC(=O)N1CCN(c2nc(OCC3CCCN3C)nc3c2CCN(c2cccc4cccc(C)c24)C3)CC1CC#N
label class: N

compound: COC(=O)c1ccc2c(C(=Nc3ccc(N(C)C(=O)CN4CCN(C)CC4)cc3)c3ccccc3)c(O)[nH]c2c1 + C=CC(=O)N1CCN(c2nc(=O)n(-c3c(C)ccnc3C(C)C)c3nc(-c4c(O)cccc4F)c(F)cc23)C(C)C1
label class: Y

Incoming: Decide: viability, T/C of COc1cc(Nc2ncc3c(n2)-c2ccc(Cl)cc2C(c2c(F)cccc2OC)=NC3)ccc1C(=O)O + COc1cc2nc(C)nc(NC(C)c3cc(N)cc(C(F)(F)F)c3)c2cc1OC1CCOC1 strictly below 9%?
Outgoing: N

Incoming: Decide: viability, T/C of CC1OCC2(CCN(c3cnc(Sc4ccnc(N)c4Cl)c(N)n3)CC2)C1N (stereo unspecified) + COc1cc2nc(C)nc(NC(C)c3cc(N)cc(C(F)(F)F)c3)c2cc1OC1CCOC1 strictly below 9%?
Outgoing: N

Incoming: Decide: viability, T/C of O=C(c1cc(Cc2n[nH]c(=O)c3ccccc23)ccc1F)N1CCN(C(=O)C2CC2)CC1 + C=CC(=O)N1CCN(c2nc(OCC3CCCN3C)nc3c2CCN(c2cccc4cccc(C)c24)C3)CC1CC#N strictly below 9%?
Outgoing: N

Incoming: Decide: viability, T/C of CCNC(=O)CC1N=C(c2ccc(Cl)cc2)c2cc(OC)ccc2-n2c(C)nnc21 (stereo unspecified) + COc1cc2nc(C)nc(NC(C)c3cc(N)cc(C(F)(F)F)c3)c2cc1OC1CCOC1 strictly below 9%?
Outgoing: Y

Incoming: Decide: viability, T/C of CC(C)NCC(C(=O)N1CCN(c2ncnc3c2C(C)CC3O)CC1)c1ccc(Cl)cc1 (stereo unspecified) + C=CC(=O)N1CCN(c2nc(OCC3CCCN3C)nc3c2CCN(c2cccc4cccc(C)c24)C3)CC1CC#N strictly below 9%?
Outgoing: Y

Incoming: Decide: viability, T/C of COc1cc(Nc2ncc3c(n2)-c2ccc(Cl)cc2C(c2c(F)cccc2OC)=NC3)ccc1C(=O)O + CC1OCC2(CCN(c3cnc(Sc4ccnc(N)c4Cl)c(N)n3)CC2)C1N strictly below 9%?
Outgoing: N

Incoming: Decide: viability, T/C of CC(C)NCC(C(=O)N1CCN(c2ncnc3c2C(C)CC3O)CC1)c1ccc(Cl)cc1 (stereo unspecified) + CNCc1ccccc1-c1csc(C(C)Nc2nc(C)nc3cc(OC)c(OC)cc23)c1 strictly below 9%?
Outgoing: Y

Incoming: Decide: viability, T/C of Cn1nccc1Nc1nccc(-c2cc3c(s2)C(C)(C)N(CCN2CCOCC2)C3=O)n1 + C=CC(=O)N1CCN(c2nc(OCC3CCCN3C)nc3c2CCN(c2cccc4cccc(C)c24)C3)CC1CC#N strictly below 9%?
Outgoing: N

Incoming: Decide: viability, T/C of COc1cc2nccc(Oc3ccc(NC(=O)C4(C(=O)Nc5ccc(F)cc5)CC4)cc3)c2cc1OC + CNCc1ccccc1-c1csc(C(C)Nc2nc(C)nc3cc(OC)c(OC)cc23)c1 strictly below 9%?
Outgoing: Y

Incoming: Decide: viability, T/C of O=C(c1cc(Cc2n[nH]c(=O)c3ccccc23)ccc1F)N1CCN(C(=O)C2CC2)CC1 + CC1OCC2(CCN(c3cnc(Sc4ccnc(N)c4Cl)c(N)n3)CC2)C1N strictly below 9%?
Outgoing: N

Incoming: Decide: viability, T/C of COc1cc(Nc2ncc3c(n2)-c2ccc(Cl)cc2C(c2c(F)cccc2OC)=NC3)ccc1C(=O)O + C=CC(=O)N1CCN(c2nc(=O)n(-c3c(C)ccnc3C(C)C)c3nc(-c4c(O)cccc4F)c(F)cc23)C(C)C1 strictly below 9%?
Outgoing: N

Incoming: Decide: viability, T/C of CC1(C)CCC(CN2CCN(c3ccc(C(=O)NS(=O)(=O)c4ccc(NCC5CCOCC5)c([N+](=O)[O-])c4)c(Oc4cnc5[nH]ccc5c4)c3)CC2)=C(c2ccc(Cl)cc2)C1 + COc1cc2nc(C)nc(NC(C)c3cc(N)cc(C(F)(F)F)c3)c2cc1OC1CCOC1 strictly below 9%?
Outgoing: Y

Incoming: Decide: viability, T/C of COc1cc2nccc(Oc3ccc(NC(=O)C4(C(=O)Nc5ccc(F)cc5)CC4)cc3)c2cc1OC + C=CC(=O)N1CCN(c2nc(OCC3CCCN3C)nc3c2CCN(c2cccc4cccc(C)c24)C3)CC1CC#N strictly below 9%?
Outgoing: Y

Incoming: Decide: viability, T/C of COc1cc2nccc(Oc3ccc(NC(=O)C4(C(=O)Nc5ccc(F)cc5)CC4)cc3)c2cc1OC + C=CC(=O)N1CCN(c2nc(=O)n(-c3c(C)ccnc3C(C)C)c3nc(-c4c(O)cccc4F)c(F)cc23)C(C)C1 strictly below 9%?
Outgoing: Y

Incoming: Decide: viability, T/C of COC(=O)c1ccc2c(C(=Nc3ccc(N(C)C(=O)CN4CCN(C)CC4)cc3)c3ccccc3)c(O)[nH]c2c1 + CC1OCC2(CCN(c3cnc(Sc4ccnc(N)c4Cl)c(N)n3)CC2)C1N strictly below 9%?
Outgoing: N

Incoming: Decide: viability, T/C of CC1OCC2(CCN(c3cnc(Sc4ccnc(N)c4Cl)c(N)n3)CC2)C1N (stereo unspecified) + C=CC(=O)N1CCN(c2nc(OCC3CCCN3C)nc3c2CCN(c2cccc4cccc(C)c24)C3)CC1CC#N strictly below 9%?
Outgoing: N

Incoming: Decide: viability, T/C of CC1(C)CCC(CN2CCN(c3ccc(C(=O)NS(=O)(=O)c4ccc(NCC5CCOCC5)c([N+](=O)[O-])c4)c(Oc4cnc5[nH]ccc5c4)c3)CC2)=C(c2ccc(Cl)cc2)C1 + CNCc1ccccc1-c1csc(C(C)Nc2nc(C)nc3cc(OC)c(OC)cc23)c1 strictly below 9%?
Outgoing: Y
